The reported measurements were obtained from ChEMBL document CHEMBL2375344.

ASSAY SYSTEM: Serine/threonine-protein kinase pim-2 (Homo sapiens) (UniProt Q9P1W9)
Sequence (Q9P1W9 whole entry, looked up): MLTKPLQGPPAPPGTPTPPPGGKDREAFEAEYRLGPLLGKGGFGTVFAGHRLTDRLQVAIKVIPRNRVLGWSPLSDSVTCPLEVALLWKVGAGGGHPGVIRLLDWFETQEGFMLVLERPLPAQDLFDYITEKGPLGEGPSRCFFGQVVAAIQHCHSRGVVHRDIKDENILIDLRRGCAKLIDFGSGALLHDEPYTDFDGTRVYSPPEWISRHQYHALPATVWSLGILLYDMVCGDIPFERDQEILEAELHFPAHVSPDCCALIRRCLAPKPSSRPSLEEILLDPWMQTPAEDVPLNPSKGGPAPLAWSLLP
EXPERIMENT: Inhibition of human full length Pim-2 using RSRHSSYPAGT as substrate assessed as residual activity at 1 uM after 30 mins in presence of [gamma-33P]ATP; values are per cent of control
Kindly state residual activity for each of the entries shown.
Supply the numeric figure in %, leaving out any unit text.

Form: item CCOC(=O)c1[nH]c2c(N)cc3cn[nH]c3c2c1C ; test system Serine/threonine-protein kinase pim-2 (Homo sapiens) (UniProt Q9P1W9); residual activity: 102

Form: item O=[N+]([O-])c1cc2cn[nH]c2c2c(-c3ccccc3)c[nH]c12 ; test system Serine/threonine-protein kinase pim-2 (Homo sapiens) (UniProt Q9P1W9); residual activity: 82

Form: item CCOCc1c[nH]c2c([N+](=O)[O-])cc3cn[nH]c3c12 ; test system Serine/threonine-protein kinase pim-2 (Homo sapiens) (UniProt Q9P1W9); residual activity: 109

Form: item Cc1c[nH]c2c(N)cc3cn[nH]c3c12 ; test system Serine/threonine-protein kinase pim-2 (Homo sapiens) (UniProt Q9P1W9); residual activity: 105

Form: item CCc1[nH]c2c([N+](=O)[O-])cc3cn[nH]c3c2c1-c1ccccc1 ; test system Serine/threonine-protein kinase pim-2 (Homo sapiens) (UniProt Q9P1W9); residual activity: 77

Form: item O=Cc1c[nH]c2c([N+](=O)[O-])cc3cn[nH]c3c12 ; test system Serine/threonine-protein kinase pim-2 (Homo sapiens) (UniProt Q9P1W9); residual activity: 117

Form: item Cc1c[nH]c2c([N+](=O)[O-])cc3cn[nH]c3c12 ; test system Serine/threonine-protein kinase pim-2 (Homo sapiens) (UniProt Q9P1W9); residual activity: 99

Form: item CCCc1c(C(=O)OC)[nH]c2c(N)cc3cn[nH]c3c12 ; test system Serine/threonine-protein kinase pim-2 (Homo sapiens) (UniProt Q9P1W9); residual activity: 105

Form: item C[Si](C)(C)c1cc2c([nH]1)c(N)cc1cn[nH]c12 ; test system Serine/threonine-protein kinase pim-2 (Homo sapiens) (UniProt Q9P1W9); residual activity: 93

====

ASSAY SYSTEM: Serine/threonine-protein kinase pim-2 (Homo sapiens) (UniProt Q9P1W9)
EXPERIMENT: Inhibition of human full length Pim-2 using RSRHSSYPAGT as substrate assessed as residual activity at 1 uM after 30 mins in presence of [gamma-33P]ATP; values are per cent of control
MEASUREMENT TYPE: residual activity (%)
Supply the numeric figure in %, leaving out any unit text.

Form: item CCOC(=O)c1[nH]c2c(N)cc3cn[nH]c3c2c1-c1ccccc1 ; test system Serine/threonine-protein kinase pim-2 (Homo sapiens) (UniProt Q9P1W9); residual activity: 101

Form: item Nc1cc2cn[nH]c2c2c(-c3ccccc3)c[nH]c12 ; test system Serine/threonine-protein kinase pim-2 (Homo sapiens) (UniProt Q9P1W9); residual activity: 103

Form: item Nc1cc2cn[nH]c2c2cc[nH]c12 ; test system Serine/threonine-protein kinase pim-2 (Homo sapiens) (UniProt Q9P1W9); residual activity: 99

Form: item CCCc1c[nH]c2c([N+](=O)[O-])cc3cn[nH]c3c12 ; test system Serine/threonine-protein kinase pim-2 (Homo sapiens) (UniProt Q9P1W9); residual activity: 66

Form: item CCCc1c(C(=O)OC)[nH]c2c([N+](=O)[O-])cc3cn[nH]c3c12 ; test system Serine/threonine-protein kinase pim-2 (Homo sapiens) (UniProt Q9P1W9); residual activity: 113

Form: item CCOC(=O)c1[nH]c2c([N+](=O)[O-])cc3cn[nH]c3c2c1-c1ccccc1 ; test system Serine/threonine-protein kinase pim-2 (Homo sapiens) (UniProt Q9P1W9); residual activity: 92

Form: item C[Si](C)(C)c1cc2c([nH]1)c([N+](=O)[O-])cc1cn[nH]c12 ; test system Serine/threonine-protein kinase pim-2 (Homo sapiens) (UniProt Q9P1W9); residual activity: 103

Form: item CCOC(=O)c1[nH]c2c([N+](=O)[O-])cc3cn[nH]c3c2c1C ; test system Serine/threonine-protein kinase pim-2 (Homo sapiens) (UniProt Q9P1W9); residual activity: 105

Form: item CCCc1c[nH]c2c(N)cc3cn[nH]c3c12 ; test system Serine/threonine-protein kinase pim-2 (Homo sapiens) (UniProt Q9P1W9); residual activity: 90

Form: item O=[N+]([O-])c1cc2cn[nH]c2c2cc[nH]c12 ; test system Serine/threonine-protein kinase pim-2 (Homo sapiens) (UniProt Q9P1W9); residual activity: 92

Form: item CCc1[nH]c2c(N)cc3cn[nH]c3c2c1-c1ccccc1 ; test system Serine/threonine-protein kinase pim-2 (Homo sapiens) (UniProt Q9P1W9); residual activity: 91
